- ASSAY_SUMMARY: Toxicity liver stage against HepG2, at 10uM
- Assay type: cell-based
- Parameters: test concentration 10 uM, cell line HepG2-A16-CD81EGFP
- ASSAY_CONTEXT: human, HepG2-A16-CD81EGFP cells; read-out: INHIBITION
Listing: cytotoxicity at 10 µM of selected compounds

COMPOUND: CNC(=O)c1sc2ccccc2c1C1CCN(c2nc(C)cc(C)n2)C1 (stereo not drawn)
cytotoxicity at 10 µM / %: 4.93

COMPOUND: CCc1nc(C)c(CN2CCOC(Cc3cccc4ccccc34)C2)[nH]1 (stereo not drawn)
cytotoxicity at 10 µM / %: -5.54

COMPOUND: O=C(CNC(=O)C1CCCC1)NCC(O)c1ccc2ccccc2c1 (stereo not drawn)
cytotoxicity at 10 µM / %: 0.587

COMPOUND: Cc1nn(C)c(C)c1C1CCCN1c1ncnc2[nH]ccc12 (stereo not drawn)
cytotoxicity at 10 µM / %: 3.45

COMPOUND: Cc1ccc(-c2nc(CN3CCOC(CN(C)C)C3)co2)cc1 (stereo not drawn)
cytotoxicity at 10 µM / %: -4.23

COMPOUND: CCNC(=O)CN1CCSC2(CCCCC2)C1
cytotoxicity at 10 µM / %: -2.64

COMPOUND: Cc1cc(N(Cc2cccs2)C2CC2)n2nc(C(F)(F)F)nc2n1
cytotoxicity at 10 µM / %: -2.1

COMPOUND: C=C(C)CN(CC)C(=O)CN(C)C1CCc2ccccc21 (stereo not drawn)
cytotoxicity at 10 µM / %: -11.6

COMPOUND: CC(C)NC(=O)c1cccc(Oc2ccc3nncn3n2)c1
cytotoxicity at 10 µM / %: -13.3

COMPOUND: COCCN(Cc1ccccc1Cl)C(=O)c1c(C)cc(C)[nH]c1=O
cytotoxicity at 10 µM / %: -5.6

COMPOUND: O=C(N[C@@H]1CCC[C@@H](N2CCCC2)[C@@H]1O)c1cc2ccccc2[nH]1
cytotoxicity at 10 µM / %: -16.2

COMPOUND: CN(C)c1nc(N)nc(CN2CCC(c3nc4ccccc4o3)CC2)n1
cytotoxicity at 10 µM / %: -6.9

COMPOUND: CC(C)(C)c1ncc(C(=O)NCCNC(=O)c2cccs2)s1
cytotoxicity at 10 µM / %: -1.56

COMPOUND: O=C(CCc1cc2n(n1)CCCNC2)NCCS(=O)(=O)N1CCCC1
cytotoxicity at 10 µM / %: 0.698

COMPOUND: Cc1cc(=O)[nH]c(-n2nc(C)c(CCC(=O)NCc3cccs3)c2C)n1
cytotoxicity at 10 µM / %: 10.3

COMPOUND: Cc1ncsc1C(=O)NCc1ccnc(N2CCN(C)CC2)c1
cytotoxicity at 10 µM / %: -6.92

COMPOUND: CO[C@@H]1CCN(Cc2cccs2)[C@@H]2CN(Cc3ccncc3)C[C@@H]21
cytotoxicity at 10 µM / %: 3.93

COMPOUND: CN(C1CCCCC1)S(=O)(=O)N1CCN(Cc2ccco2)CC1
cytotoxicity at 10 µM / %: -81.7

COMPOUND: CCCS(=O)(=O)N1C[C@@H]2CN(Cc3ccoc3)CCO[C@@H]2C1
cytotoxicity at 10 µM / %: -117

COMPOUND: Cc1c(CNC(=O)c2cn(CCC3CCCCN3)nn2)cnn1C (stereo not drawn)
cytotoxicity at 10 µM / %: -3.44

COMPOUND: Cc1cnn(C2CN(Cc3noc(C)n3)C2)c1
cytotoxicity at 10 µM / %: 40.3

COMPOUND: CCN1CCN(S(=O)(=O)c2cc(C)c(C)cc2Br)CC1
cytotoxicity at 10 µM / %: -9.74

COMPOUND: CC(C)OCCCNS(=O)(=O)c1ccc2c(c1)NC(=O)C(C)O2 (stereo not drawn)
cytotoxicity at 10 µM / %: 0.893

Data origin: ChEMBL document CHEMBL4513216
